The reported numbers originate from ChEMBL document CHEMBL5523675.

protocol.notes: Genotoxicity in human MDA-MB-231 cells assessed as abnormal tail nuclei measured after 48 hrs by ethidium bromide staining based fluorescent microscopic analysis
Assay type: toxicity, cell-based
condition.info: mda-mb-231, 48 h
property.label: Activity

Some entries whose results are on file:
C[n+]1ccc(/C=C/c2cc3c(O)c(c2)Cc2cc(C(C)(C)C)cc(c2OCCCn2cc(CN4C(=O)C(=O)c5ccccc54)nn2)Cc2cc(/C=C/c4cc[n+](C)cc4)cc(c2O)Cc2cc(C(C)(C)C)cc(c2OCCCn2cc(CN4C(=O)C(=O)c5ccccc54)nn2)C3)cc1.[I-].[I-] ... Toxic
C[n+]1ccc(/C=C/c2cc3c(O)c(c2)Cc2cc(C(C)(C)C)cc(c2OCCCn2cc(CN4C(=O)C(=O)c5cc(I)ccc54)nn2)Cc2cc(/C=C/c4cc[n+](C)cc4)cc(c2O)Cc2cc(C(C)(C)C)cc(c2OCCCn2cc(CN4C(=O)C(=O)c5cc(I)ccc54)nn2)C3)cc1.[I-].[I-] ... Toxic
C[n+]1ccc(/C=C/c2cc3c(O)c(c2)Cc2cc(C(C)(C)C)cc(c2OCCCn2cc(CN4C(=O)C(=O)c5cc(F)ccc54)nn2)Cc2cc(/C=C/c4cc[n+](C)cc4)cc(c2O)Cc2cc(C(C)(C)C)cc(c2OCCCn2cc(CN4C(=O)C(=O)c5cc(F)ccc54)nn2)C3)cc1.[I-].[I-] ... Toxic
C[n+]1ccc(/C=C/c2cc3c(O)c(c2)Cc2cc(C(C)(C)C)cc(c2OCCCn2cc(CN4C(=O)C(=O)c5cc(Br)ccc54)nn2)Cc2cc(/C=C/c4cc[n+](C)cc4)cc(c2O)Cc2cc(C(C)(C)C)cc(c2OCCCn2cc(CN4C(=O)C(=O)c5cc(Br)ccc54)nn2)C3)cc1.[I-].[I-] ... Toxic

The compound Cc1ccc2c(c1)C(=O)C(=O)N2Cc1cn(CCCOc2c3cc(C(C)(C)C)cc2Cc2cc(/C=C/c4cc[n+](C)cc4)cc(c2O)Cc2cc(C(C)(C)C)cc(c2OCCCn2cc(CN4C(=O)C(=O)c5cc(C)ccc54)nn2)Cc2cc(/C=C/c4cc[n+](C)cc4)cc(c2O)C3)nn1.[I-].[I-] showed Activity equal to Toxic

The compound C[n+]1ccc(/C=C/c2cc3c(O)c(c2)Cc2cc(C(C)(C)C)cc(c2OCCCn2cc(CN4C(=O)C(=O)c5cc(Cl)ccc54)nn2)Cc2cc(/C=C/c4cc[n+](C)cc4)cc(c2O)Cc2cc(C(C)(C)C)cc(c2OCCCn2cc(CN4C(=O)C(=O)c5cc(Cl)ccc54)nn2)C3)cc1.[I-].[I-] showed Activity equal to Toxic

* * *

Test system: MDA-MB-231
protocol.notes: Induction of apoptosis in human MDA-MB-231 cells assessed as early apoptotic cells incubated for 48 hrs by annexin V and 7-AAD staining based flow cytometry analysis (reference value: 0.18%)
Type: functional
The compounds listed here are annotated with their Activity.
Value expressed in %; do not type the unit.

Cc1ccc2c(c1)C(=O)C(=O)N2Cc1cn(CCCOc2c3cc(C(C)(C)C)cc2Cc2cc(/C=C/c4cc[n+](C)cc4)cc(c2O)Cc2cc(C(C)(C)C)cc(c2OCCCn2cc(CN4C(=O)C(=O)c5cc(C)ccc54)nn2)Cc2cc(/C=C/c4cc[n+](C)cc4)cc(c2O)C3)nn1.[I-].[I-] ... 0.02

The compound C[n+]1ccc(/C=C/c2cc3c(O)c(c2)Cc2cc(C(C)(C)C)cc(c2OCCCn2cc(CN4C(=O)C(=O)c5cc(I)ccc54)nn2)Cc2cc(/C=C/c4cc[n+](C)cc4)cc(c2O)Cc2cc(C(C)(C)C)cc(c2OCCCn2cc(CN4C(=O)C(=O)c5cc(I)ccc54)nn2)C3)cc1.[I-].[I-] showed Activity equal to 0.21
